Assay: ELISA fixation of biotinylated peptides on sensitized plates
Format: binding
Details: read-out: avidity (Kd), quantity of peptides necessary to obtain 50% fixation, Chondroitin A; Table 5
Where no end group is shown, it is not given here.
OBSERVABLE: pKd
For clarity, pKd is expressed as the negative log10 of concentration in mol/L.

SEQUENCE DATA: QGKSKREKKDRVF [SEQ ID NO: 37]
RESULT VALUE: 6.75
//
SEQUENCE DATA: LRRERQSRLRRERSQSR [SEQ ID NO: 39]
RESULT VALUE: 7.00
//
SEQUENCE DATA: GKRKKKGKLGKKRDP [SEQ ID NO: 30]
RESULT VALUE: 7.11
//
SEQUENCE DATA: RKGFYKRKQCKP [SEQ ID NO: 20]
RESULT VALUE: 7.22

Prompt: Determine its reported pKd: YRSRKYSSWYYALKR [SEQ ID NO: 34]
Response: 7.33

Prompt: Fill in pKd for record VKRGLKLVKRGLKLVKRGLKL [SEQ ID NO: 3]
Response: 7.43

Prompt: Give recorded pKd. AKTGKRKRSG [SEQ ID NO: 36]
Response: 6.54

Prompt: Report measured pKd; entry is GRPRESGKKRKRKRLKP [SEQ ID NO: 21]
Response: 6.87

Prompt: Kindly indicate its recorded pKd. Item: GLKKNGSCKRGPR [SEQ ID NO: 33]
Response: 6.65
